pIC50: −log10 of the molar value.
The following are reported pIC50 results, target or system UniProt P01116.
reported-property: pIC50

- Oc1cc(-c2c(Cl)cc3c(N4CC5CCC(C4)N5)nc(OCCCN4CCOC5(CC5)C4)nc3c2F)c2ccccc2c1 (single isomer, unassigned) [Compound 240]: 5.66
- Oc1cc(-c2c(Cl)cc3c(N4CC5CCC(C4)N5)nc(OCCCN4CC5CCC4CO5)nc3c2F)c2ccccc2c1 (single isomer, unassigned) [Compound 187b]: 5.78

* * *

- study-target: KRAS-G12D and SOS1 (Homo sapiens, UniProt P01116, G12D)
- Sequence (P01116 1-188 isoform P01116-2 G12D): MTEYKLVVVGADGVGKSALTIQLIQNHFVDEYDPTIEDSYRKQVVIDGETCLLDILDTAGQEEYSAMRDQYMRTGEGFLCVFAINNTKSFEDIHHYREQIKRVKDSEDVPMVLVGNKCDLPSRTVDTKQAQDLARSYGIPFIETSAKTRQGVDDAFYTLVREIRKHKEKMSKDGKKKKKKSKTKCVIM
- assay-notes: Inhibition of KRAS-G12D/SOS1 binding (Cisbio binding kit, 665/615 ratio), Effect Embodiment A
- measurement-conditions: read-out: GTP-KRAS-G12D:SOS1 IC50
- Method: Similarly, the first dilution point of the compound to be tested was its storage solution, and the solution was 3-fold diluted, with 11+0 points of dilution. Echo was used to transfer 0.2 μL gradient diluted solution of the compounds into a 384-well plate, with 2 duplicated wells for each compound, and the final concentration of DMSO was 1%. The solution was centrifuged for 1 min at 1000 rpm/min. IC50 of the compounds was fitted by Graphpad Prism 8 nonlinear regression equation: […]
pIC50: −log10 of the molar value. Counter-ions that a name gives are not always drawn.
reported-property: pIC50

P = CN(C)C1CN(c2nc(N3CCNCC34CC4)c3cc(Cl)c(-c4cc(O)cc5ccccc45)c(F)c3n2)C1 (single isomer, unassigned) [Compound 19a]
Q = CN(C)C1CCC(Oc2nc(N3CC4CCC(C3)N4)c3cc(Cl)c(-c4cc(O)cc5ccccc45)c(F)c3n2)C1 (single isomer, unassigned) [Compound 70c, dihydrochloride]
R = CN1C[C@@H]2C[C@@H]2[C@H]1COc1nc(N2CC3CCC(C2)N3)c2cc(Cl)c(-c3cc(O)cc4ccccc34)c(F)c2n1 (single isomer, unassigned)
Query: Thanks in advance: please rank these 3 entries by pIC50, highest to lowest. Present the labels in the sequence the task asks for.
Result: R, Q, P

* * *

- study-target: KRAS_G12D and cRAF (Homo sapiens, UniProt P01116, G12D)
- Sequence (P01116 1-188 isoform P01116-2 G12D): as above
- assay-notes: Inhibition of KRAS_G12D/cRAF binding (Cisbio binding kit, 665/615 ratio), Effect Embodiment B
- measurement-conditions: read-out: GTP-KRAS-G12D:CRAF IC50
- Method: Similarly, the first dilution point of the compound to be tested was its storage solution, and the solution was 3-fold diluted, with 11+0 points of dilution. Echo was used to transfer 0.2 μL gradient diluted solution of the compounds into a 384-well plate, with 2 duplicated wells for each compound, and the final concentration of DMSO was 1%. The solution was centrifuged for 1 min at 1000 rpm/min. IC50 of the compounds was fitted by Graphpad Prism 8 nonlinear regression equation: […]
reported-property: IC50 (nM)

I = CN(C)CCCOc1nc(N2C[C@H]3CC[C@@H](C2)N3)c2ccc(-c3cc(O)cc4ccccc34)c(F)c2n1 [Compound 143]
II = CCc1c(F)ccc2cc(O)cc(-c3c(Cl)cc4c(N5CC6CCC(C5)N6)nc(OC[C@H](C)CN5C6CCC5COC6)nc4c3F)c12 (single isomer, unassigned) [Compound 233b]
III = C[C@@H](COc1nc(N2CC3CCC(C2)N3)c2cc(Cl)c(-c3cc(O)cc4ccccc34)c(F)c2n1)CN1CCO[C@H](C)C1 (single isomer, unassigned) [Compound 242]
Query: Thanks in advance: please rank these 3 entries by IC50, highest to lowest. Present the labels in the sequence the task asks for.
Result: I, III, II
